Measured values drawn from ChEMBL document CHEMBL1144886 for this set.

target-desc: 5'-methylthioadenosine/S-adenosylhomocysteine nucleosidase (Escherichia coli O157:H7, UniProt P0AF14)
Sequence (P0AF14 whole entry): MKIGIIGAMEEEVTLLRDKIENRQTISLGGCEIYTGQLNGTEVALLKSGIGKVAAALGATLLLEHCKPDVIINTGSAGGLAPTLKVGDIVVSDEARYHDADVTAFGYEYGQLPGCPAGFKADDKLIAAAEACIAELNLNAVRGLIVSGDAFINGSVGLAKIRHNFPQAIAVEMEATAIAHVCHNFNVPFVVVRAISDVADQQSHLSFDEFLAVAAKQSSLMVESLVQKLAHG
pKi: −log10 of the molar value.
pKi values by entry

smiles-input | pKi
O=S(=O)(Nc1ccc2[nH]ncc2c1)c1ccc(Cl)cc1 | 4.57
Cc1cccc(-c2cccc(S(=O)(=O)Nc3cc(NCC(C)C)c4n[nH]c(Cl)c4c3)c2)c1 | 7.44
O=S(=O)(Nc1ccc2[nH]nc(Cl)c2c1)c1ccc(Cl)cc1 | 5.28
O=S(=O)(Nc1cc(NCCc2ccccc2)c2[nH]nc(Cl)c2c1)c1ccc(Cl)cc1 | 5.64
O=S(=O)(Nc1cc(NCC2CC2)c2[nH]nc(Cl)c2c1)c1ccc(Cl)cc1 | 6.30
CC(C)(C)CNc1cc(NS(=O)(=O)c2ccc(Cl)cc2)cc2c(Cl)[nH]nc12 | 5.92
Cc1nccc(-c2cccc(S(=O)(=O)Nc3cc(NCC(C)C)c4n[nH]c(Cl)c4c3)c2)n1 | 7.44
O=S(=O)(Nc1cc(NCc2ccccc2)c2[nH]nc(Cl)c2c1)c1ccc(Cl)cc1 | 5.74
Cc1n[nH]c2ccc(NS(=O)(=O)c3cccc4c(N(C)C)cccc34)cc12 | 4.19
CC(C)CNc1cc(NS(=O)(=O)c2cccc(-c3ccc(Cl)cc3)c2)cc2c(Cl)[nH]nc12 | 7.90
CC(C)CCNc1cc(NS(=O)(=O)c2ccc(Cl)cc2)cc2c(Cl)[nH]nc12 | 5.31
Cc1nccc(-c2cccc(S(=O)(=O)Nc3cc(NCC(C)C)c4[nH]nc(C)c4c3)c2)n1 | 6.72
CC(C)CNc1cc(NS(=O)(=O)c2cccc(-c3ccc(C(F)(F)F)cc3)c2)cc2c(Cl)[nH]nc12 | 7.89
CCNc1cc(NS(=O)(=O)c2ccc(Cl)cc2)cc2c(Cl)[nH]nc12 | 5.57
CC(C)CNc1cc(NS(=O)(=O)c2cccc(-c3ccncc3)c2)cc2c(Cl)[nH]nc12 | 7.28
CC(C)CNc1cc(NS(=O)(=O)c2cccc(-c3ccc(Cl)c(Cl)c3)c2)cc2c(Cl)[nH]nc12 | 8.80
CSc1cccc(-c2cccc(S(=O)(=O)Nc3cc(NCC(C)C)c4[nH]nc(Cl)c4c3)c2)c1 | 7.77
Cc1cc(-c2cccc(S(=O)(=O)Nc3cc(NCC(C)C)c4n[nH]c(Cl)c4c3)c2)ccn1 | 7.55
Cc1n[nH]c2c(NCC(C)C)cc(NS(=O)(=O)c3cccc(-c4cccc(C(F)(F)F)c4)c3)cc12 | 7.70
CC(C)(C)CCNc1cc(NS(=O)(=O)c2ccc(Cl)cc2)cc2c(Cl)[nH]nc12 | 5.19
Cc1n[nH]c2c(NCC(C)C)cc(NS(=O)(=O)c3cccc(-c4ccncc4)c3)cc12 | 6.62
